Test: NCI Yeast Anticancer Drug Screen. Data for the sgs1 strain (AID 173);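 further: 0% = growth of vehicle-only control cultures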
Conditions: S. cerevisiae sgs1 mutant, at 33.0 µM, stronger effect = higher value
Experimental: Growth inhibition of yeast strains with defined genetic alterations is measured as a screen for potential anti-cancer activity. Selected strains with alterations in DNA damage repair or cell cycle control were exposed to compounds and growth inhibition was measured relative to vehicle treated controls. The strain used in this assay is sgs1
Compounds without any hit were thinned out: in the full panel of roughly 79,000, 15% have a hit.
assayReadout: growth inhibition (%)
Numbers only here, please. The scale is %.

Value of growth inhibition reported for the molecule O=C1C=C(Cl)C(=O)N1c1cccc(Cl)c1 is 100

Value of growth inhibition reported for the molecule Cc1c(-c2ccccn2)ccc2ccccc12 is 24

Value of growth inhibition reported for the molecule Cc1ccc(NC(=O)/C(CC2N=c3c(ccc4c(O)c5ccccc5c(O)c34)=NC2O)=N/NC(C)(C)C)cc1 (stereo not drawn) is 1

---

Experiment: NCI Yeast Anticancer Drug Screen. Data for the sgs1 strain (AID 173);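 further: 0% = growth of vehicle-only control cultures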
Conditions: S. cerevisiae sgs1 mutant, at 33.0 µM, stronger effect = higher value
Compounds without any hit were thinned out: in the full panel of roughly 79,000, 15% have a hit.
I would appreciate it if you labelled entries Condition met when growth inhibition is 60% or higher, otherwise Condition not met.

Assess whether reported growth inhibition for CCCCCCCCCCCC1=NCCO1 sits at 60% or higher.
Condition met

Assess whether reported growth inhibition for C[C@]12CC[C@H](O)CC1=CC[C@@H]1C2CC[C@]2(C)C(=O)NC(=O)CC12 (some centres not stated) sits at 60% or higher.
Condition met

Assess whether reported growth inhibition for CCCC(O)C1CC(C(C)C)CCC1C (configuration not stated) sits at 60% or higher.
Condition not met

Assess whether reported growth inhibition for O=C1c2ccccc2C(=O)N1CCCC(=O)n1cc(F)c(=O)[nH]c1=O sits at 60% or higher.
Condition met

Assess whether reported growth inhibition for CCc1ccc2c(c1)N(CC(C)CN(C)C)c1ccccc1S2 (configuration not stated) sits at 60% or higher.
Condition not met

Assess whether reported growth inhibition for Cc1c2cccc(Sc3ccccc3)c2c2c3c(cccc13)[S+](c1ccccc1)C2 (configuration not stated) sits at 60% or higher.
Condition met

Assess whether reported growth inhibition for Cc1cc(C(C)(C)C)c(OCCCN2CCOCC2)c(C(C)(C)C)c1 sits at 60% or higher.
Condition not met

Assess whether reported growth inhibition for Cc1nc(Nc2ccccc2[N+](=O)[O-])sc1C(=O)CC(=O)C(=O)Nc1c(C(C)C)cccc1C(C)C sits at 60% or higher.
Condition not met

Assess whether reported growth inhibition for O=c1[nH]c(-c2ccccc2)nc2c1sc1nc3ccccc3n12 sits at 60% or higher.
Condition not met

Assess whether reported growth inhibition for CN(C)c1ccc(C2CC(C)(O)Oc3cc4c(cc32)OCO4)cc1 (configuration not stated) sits at 60% or higher.
Condition not met

Assess whether reported growth inhibition for O=C(O)CCCC1CCCc2c1ccc1ccccc21 (configuration not stated) sits at 60% or higher.
Condition met

Assess whether reported growth inhibition for CN(C)C=NC1CCC(C(C)(C)C)CC1 (configuration not stated) sits at 60% or higher.
Condition met

---

What growth inhibition was measured for each of the following?
Experiment: NCI Yeast Anticancer Drug Screen. Data for the rad14 strain (AID 159);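 further: 0% = growth of vehicle-treated control cultures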
Settings: S. cerevisiae rad14 strain growth inhibition; at 100.0 µM; stronger effect = higher value
This is part of a sample that, as a whole, favours compounds with a hit. Of some 79,000 tested, about 15% had one in any assay.
Numbers only here, please. The scale is %.

Value of growth inhibition reported for the compound CCOc1c(N=Nc2ccccc2OC)c(C)nn1C(=S)S is 78

Value of growth inhibition reported for the compound CCOC(=O)C(Br)C(Br)c1ccccc1Cl (stereo not given) is 99

Value of growth inhibition reported for the compound CCCCOP(=O)(CCCP(=O)(OCCCC)OCCCC)OCCCC is 90

Value of growth inhibition reported for the compound Cc1ccc2c3ccc4c(c3n(C)c2c1)C(=O)C=CC4=O is 59

Value of growth inhibition reported for the compound CC1=NOC(=O)/C1=C/c1ccc2c(c1)OCO2 is 29

Value of growth inhibition reported for the compound N#CC(C#N)=NNc1ccc(S(=O)(=O)O)cc1 is 23

Value of growth inhibition reported for the compound CCC(C)NC1=NCC(C)S1 (stereo not given) is -25

Value of growth inhibition reported for the compound CCOC(=O)c1cc([N+](=O)[O-])c(Sc2ncnc3nc[nH]c23)c([N+](=O)[O-])c1 is 87

Value of growth inhibition reported for the compound COc1cc(/C=C2\CCC/C(=C\c3ccc(O)c(OC)c3)C2=O)ccc1O is 5

Value of growth inhibition reported for the compound CC(C)(C)CC(C)(C)c1cc(O)c(O)c(CN2CCCCC2)c1 is 68

Value of growth inhibition reported for the compound Cc1c2cccc(Sc3ccccc3)c2c2c3c(cccc13)[S+](c1ccccc1)C2 (stereo not given) is 90

Value of growth inhibition reported for the compound CN(C)c1nc(=Nc2cccc(Cl)c2)ss1 is 99

Value of growth inhibition reported for the compound CCOC(=O)c1ccc(NC(=O)O/N=C(/Cl)C(C)C)cc1 is 99

Value of growth inhibition reported for the compound O=C1C=C(Cl)C(=O)C(c2ccc(Cl)cc2)=C1 is 96

Value of growth inhibition reported for the compound O=C(O)c1cc2ccccc2c2c1C(=O)c1ccccc1-2 is 95

---

Experiment: NCI Yeast Anticancer Drug Screen. Data for the wt2 strain (AID 169);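 further: 0% = growth of vehicle-treated yeast cultures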
Conditions: S. cerevisiae wt2 strain growth inhibition; at 33.0 µM; stronger effect = higher value
Method: Growth inhibition of yeast strains with defined genetic alterations is measured as a screen for potential anti-cancer activity. Selected strains with alterations in DNA damage repair or cell cycle control were exposed to compounds and growth inhibition was measured relative to vehicle treated controls. The strain used in this assay is wt2
This is part of a sample that, as a whole, favours compounds with a hit. Of some 79,000 tested, about 15% had one in any assay. The source made the active and inactive calls. No stated cut-off is given here; in the data, active means growth inhibition above about 70%; inactive means the rest.
What growth inhibition was measured for each of the following?

Value of growth inhibition reported for the compound COc1ccc(C(=O)C(CN(C)C)CN(C)C)cc1 is 36% (inactive)

Value of growth inhibition reported for the compound CN1CCN(C(=O)/C=C/C(=O)c2ccccc2)CC1 is 76% (active)

Value of growth inhibition reported for the compound Cc1ccc([N+]2=NC(c3ccccc3)=NN(c3ccccc3)C2)cc1 is 83% (active)

Value of growth inhibition reported for the compound c1ccc2c(c1)sc1c3cnccc3ccc21 is 36% (inactive)

Value of growth inhibition reported for the compound CC(C)(C)c1ccc(NS(=O)(=O)c2ccc(N)cc2)cc1 is 4% (inactive)

Value of growth inhibition reported for the compound O=c1[nH]c(-c2ccccc2)nc2c1sc1nc3ccccc3n12 is 19% (inactive)

Value of growth inhibition reported for the compound COC1=C(N)C(=O)c2nc(-c3nc(C(=O)O)c(C)c(-c4ccc(OC)c(OC)c4O)c3N)ccc2C1=O is 98% (active)

Value of growth inhibition reported for the compound O=C(O)Cc1cc(F)ccc1C(=O)O is 18% (inactive)

Value of growth inhibition reported for the compound CCCCCCC(O)CNCc1ccnc2ccc(OC)cc12 (configuration not stated) is 14% (inactive)

Value of growth inhibition reported for the compound COc1ccc(/C=C/c2sc3ccccc3[n+]2CCCCI)cc1OC is 26% (inactive)

Value of growth inhibition reported for the compound Cc1sc2ccc3ccccc3c2[n+]1C is 8% (inactive)

Value of growth inhibition reported for the compound O=P(NC1CCCCC1)(OCc1ccccc1)OCc1ccccc1 is 4% (inactive)

Value of growth inhibition reported for the compound COC(=O)/C=C(/CC(=O)OC)C(=O)OC is -1% (inactive)

Value of growth inhibition reported for the compound Cc1nc(Nc2ccccc2[N+](=O)[O-])sc1C(=O)CC(=O)C(=O)Nc1c(C(C)C)cccc1C(C)C is 2% (inactive)

Value of growth inhibition reported for the compound O=C1C(Br)=C(c2ccccc2)O/C1=C/C(=O)c1ccc(Br)cc1 is 31% (inactive)

Value of growth inhibition reported for the compound Cc1csc(=S)n1OC(=O)NC1CCCCC1 is 99% (active)

Value of growth inhibition reported for the compound Cc1ccc(N=Nc2ccc(O)c(=O)cc2)cc1 is 87% (active)

Value of growth inhibition reported for the compound CN(C)CCNC(=O)c1cccc2cc([N+](=O)[O-])ccc12 is 60% (inactive)

Value of growth inhibition reported for the compound CCOC(=O)CC1(C(=O)OCC)c2[nH]c3ccccc3c2CCN1Cc1ccccc1 (configuration not stated) is 2% (inactive)

Value of growth inhibition reported for the compound CCn1c(O)c(C=Nc2ccccc2)s/c1=N/Nc1nc(-c2ccccc2)cs1 is 2% (inactive)

Value of growth inhibition reported for the compound CCCCCCOC(=O)NCCOC(=O)Nc1ccccc1 is 0% (inactive)

Value of growth inhibition reported for the compound N#CC1=C(N)N(/N=C/c2ccccc2)C(c2ccccc2)C1(C#N)C#N (configuration not stated) is 86% (active)

Value of growth inhibition reported for the compound COc1cccc2c1C(=O)c1c(O)c3c(c(O)c1C2=O)CC(O)(C(O)CO)CC3OC1CC(N2CCOCC2)C(O)C(C)O1 (configuration not stated) is 97% (active)

Value of growth inhibition reported for the compound COc1c(O)c(C=O)c(Br)c(C=O)c1O is 30% (inactive)

Value of growth inhibition reported for the compound CCOC1(c2cccc([N+](=O)[O-])c2)c2ccccc2Oc2ccccc21 is 2% (inactive)

Value of growth inhibition reported for the compound Cc1cccc2c1nc1ccc(Cl)cc1[n+]2C is 97% (active)

Value of growth inhibition reported for the compound O=C1Nc2ccccc2/C1=C/c1ccccc1 is 35% (inactive)
